Target: 5-hydroxytryptamine receptor 7 (Homo sapiens)
Measurement Label: Ki (nM)

[[record]]
molecule_smiles = "CNS(=O)(=O)c1ccc2[nH]cc(CCN(C)C)c2c1"
test_result = 950

[[record]]
molecule_smiles = "CN1C[C@H](CNC(=O)OCc2ccccc2)C[C@@H]2c3cccc4[nH]cc(c34)C[C@H]21"
test_result = 6.4


====

Molecular target: 5-hydroxytryptamine receptor 6 (Homo sapiens)
Sequence (P50406 whole entry): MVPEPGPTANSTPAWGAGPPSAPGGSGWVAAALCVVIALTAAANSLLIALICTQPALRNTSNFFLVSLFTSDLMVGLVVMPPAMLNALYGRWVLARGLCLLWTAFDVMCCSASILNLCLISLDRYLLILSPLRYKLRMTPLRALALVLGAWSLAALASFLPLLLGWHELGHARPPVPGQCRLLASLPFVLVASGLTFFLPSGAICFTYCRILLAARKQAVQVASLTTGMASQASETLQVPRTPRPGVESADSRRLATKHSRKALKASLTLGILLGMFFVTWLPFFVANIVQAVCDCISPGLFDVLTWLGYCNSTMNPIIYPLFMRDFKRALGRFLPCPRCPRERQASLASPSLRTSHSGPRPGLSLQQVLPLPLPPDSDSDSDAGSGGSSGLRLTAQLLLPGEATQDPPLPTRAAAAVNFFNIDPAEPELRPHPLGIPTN
Measurement Label: Ki (µM)

[[record]]
compound = "COc1cccc2[nH]cc(CCN(C)C)c12"
unit_annotation = "µM"
test_result = 0.154

[[record]]
compound = "COc1cccc2c(CCN(C)C)c[nH]c12"
unit_annotation = "µM"
test_result = 19.6

[[record]]
compound = "CN1CCN(C2=Nc3ccccc3Oc3ccc(Cl)cc32)CC1"
unit_annotation = "µM"
test_result = 0.015

[[record]]
compound = "COc1ccc2c(c1)c(CCN(C)C)cn2-c1ccccc1"
unit_annotation = "µM"
test_result = 0.033

[[record]]
compound = "CN(C)CC/C=C1/c2ccccc2Sc2ccc(Cl)cc21"
unit_annotation = "µM"
test_result = 0.003

[[record]]
compound = "COc1ccc2c(c1)c1c(n2S(=O)(=O)c2ccccc2)CCCC1CN(C)C (stereo unspecified)"
unit_annotation = "µM"
test_result = 0.0015

[[record]]
compound = "O=c1[nH]c2ccccc2n1C1CCN(CCCC(c2ccc(F)cc2)c2ccc(F)cc2)CC1 [PIMOZIDE]"
unit_annotation = "µM"
test_result = 0.071

[[record]]
compound = "Cc1cn(S(=O)(=O)c2ccc(N)cc2)c2ccccc12"
unit_annotation = "µM"
test_result = 0.012

[[record]]
compound = "COc1ccc2c(CCN(C)C)c[nH]c2c1"
unit_annotation = "µM"
test_result = 8

[[record]]
compound = "COc1ccc2[nH]c(C)c(CCN)c2c1"
unit_annotation = "µM"
test_result = 0.08

[[record]]
compound = "Nc1ccc(S(=O)(=O)Nc2cc(N)nc(Br)c2)cc1"
unit_annotation = "µM"
test_result = 0.055


====

Biological target: 5-hydroxytryptamine receptor 5A (Homo sapiens)
Assay: Binding affinity towards human 5-hydroxytryptamine 5A receptor was evaluated using [3H]-5-CT as radioligand
The following compounds are listed with their measured Ki values.
Measurement Label: Ki

[[record]]
molecule_smiles = "CN1CCN(C2=Nc3cc(Cl)ccc3Nc3ccccc32)CC1"
measurement_label = "Ki"
test_result = "1 µM"

[[record]]
molecule_smiles = "NCCc1c[nH]c2ccc(C(N)=O)cc12"
measurement_label = "Ki"
test_result = "0.02 µM"

[[record]]
molecule_smiles = "O=C(c1ccc(F)cc1)C1CCN(CCn2c(=O)[nH]c3ccccc3c2=O)CC1"
measurement_label = "Ki"
test_result = "20 µM"

[[record]]
molecule_smiles = "O=C(CCCN1CCC2(CC1)C(=O)NCN2c1ccccc1)c1ccc(F)cc1"
measurement_label = "Ki"
test_result = "63 µM"

[[record]]
molecule_smiles = "CNS(=O)(=O)c1ccc2[nH]cc(CCN(C)C)c2c1"
measurement_label = "Ki"
test_result = "5 µM"


====

Biological target: 5-hydroxytryptamine receptor 5A (Homo sapiens, UniProt P47898)
Sequence (P47898 whole entry): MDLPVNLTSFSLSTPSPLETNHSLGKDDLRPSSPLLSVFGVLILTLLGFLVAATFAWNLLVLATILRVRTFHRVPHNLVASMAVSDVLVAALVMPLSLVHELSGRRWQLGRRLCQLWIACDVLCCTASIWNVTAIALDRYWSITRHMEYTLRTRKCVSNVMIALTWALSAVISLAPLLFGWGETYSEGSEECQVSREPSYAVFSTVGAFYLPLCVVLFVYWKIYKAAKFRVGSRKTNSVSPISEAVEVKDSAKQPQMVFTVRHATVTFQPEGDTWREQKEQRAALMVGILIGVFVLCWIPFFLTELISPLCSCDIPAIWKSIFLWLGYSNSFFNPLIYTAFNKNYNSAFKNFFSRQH
Assay: Binding affinity towards human 5-hydroxytryptamine 5A receptor
Measurement Label: Ki (µM)

[[record]]
compound = "O=C(c1ccc(F)cc1)C1CCN(CCn2c(=O)[nH]c3ccccc3c2=O)CC1"
censor_symbol = "="
test_result = 20

[[record]]
compound = "CNS(=O)(=O)c1ccc2[nH]cc(CCN(C)C)c2c1"
censor_symbol = "="
test_result = 5

[[record]]
compound = "COc1cc(CC(C)N)c(OC)cc1I (configuration not stated)"
censor_symbol = ">"
test_result = 1

[[record]]
compound = "COc1cc(N)c(Cl)cc1C(=O)NC1CN2CCC1CC2 (configuration not stated) [ZACOPRIDE]"
censor_symbol = "="
test_result = 16

[[record]]
compound = "Cc1[nH]c2ccc(O)cc2c1CCN"
censor_symbol = ">"
test_result = 10

[[record]]
compound = "NCCc1c[nH]c2ccc(C(N)=O)cc12"
censor_symbol = "="
test_result = 0.02

[[record]]
compound = "C[N+](C)(C)CCc1c[nH]c2ccc(O)cc12"
censor_symbol = ">"
test_result = 10


====

Target: 5-hydroxytryptamine receptor 5A (Mus musculus, UniProt P30966)
Sequence (P30966 whole entry): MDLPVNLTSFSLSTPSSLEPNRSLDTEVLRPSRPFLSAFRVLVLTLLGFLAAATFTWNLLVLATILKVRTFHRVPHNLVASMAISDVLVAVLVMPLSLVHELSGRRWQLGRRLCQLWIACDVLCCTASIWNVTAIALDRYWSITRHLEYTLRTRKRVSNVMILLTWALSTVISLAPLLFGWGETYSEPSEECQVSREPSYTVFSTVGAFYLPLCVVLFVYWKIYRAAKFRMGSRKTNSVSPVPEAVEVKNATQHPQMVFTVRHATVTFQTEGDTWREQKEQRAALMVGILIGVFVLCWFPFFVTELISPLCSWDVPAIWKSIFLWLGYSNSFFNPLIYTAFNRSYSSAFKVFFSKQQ
Test: Binding affinity towards mouse 5-hydroxytryptamine 5A receptor
Measurement Label: Ki (nM)

[[record]]
molecule_smiles = "c1ccc2c3c([nH]c2c1)CNCC3"
measurement_label = "Ki"
test_result = 2470


====

The following molecules are listed with their measured pKi values.
Target: UniProt:P32305
Test: Binding affinity towards rat 5-hydroxytryptamine 7 receptor
Details: read-out: Ki
pKi: −log10 of the molar value.
Measurement Label: pKi

[[record]]
molecule_smiles = "CN(C)CC/C=C1/c2ccccc2Sc2ccc(Cl)cc21"
measurement_label = "pKi"
test_result = 8.25

[[record]]
molecule_smiles = "CN1C[C@H](CNC(=O)OCc2ccccc2)C[C@@H]2c3cccc4[nH]cc(c34)C[C@H]21"
measurement_label = "pKi"
test_result = 7.22

[[record]]
molecule_smiles = "CN1CCN(C2=Nc3ccccc3Nc3sccc32)CC1"
measurement_label = "pKi"
test_result = 6.98

[[record]]
molecule_smiles = "CN1C[C@@H](NS(=O)(=O)N(C)C)C[C@@H]2c3cccc4[nH]cc(c34)C[C@H]21"
measurement_label = "pKi"
test_result = 7.68


====

Molecular target: 5-hydroxytryptamine receptor 7 (Rattus norvegicus, UniProt P32305)
Sequence (P32305 whole entry): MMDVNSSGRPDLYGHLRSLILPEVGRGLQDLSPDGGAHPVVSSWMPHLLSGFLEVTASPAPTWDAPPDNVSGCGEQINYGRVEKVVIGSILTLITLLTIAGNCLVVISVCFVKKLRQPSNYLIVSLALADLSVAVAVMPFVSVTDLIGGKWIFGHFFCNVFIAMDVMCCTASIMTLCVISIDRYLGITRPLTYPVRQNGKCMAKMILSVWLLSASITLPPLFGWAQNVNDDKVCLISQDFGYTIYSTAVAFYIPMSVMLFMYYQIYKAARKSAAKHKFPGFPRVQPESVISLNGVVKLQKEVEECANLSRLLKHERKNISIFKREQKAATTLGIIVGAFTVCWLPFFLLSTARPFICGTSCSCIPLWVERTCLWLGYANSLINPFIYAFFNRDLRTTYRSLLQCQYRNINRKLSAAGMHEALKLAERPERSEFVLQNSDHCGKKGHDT
Assay: Binding affinity towards rat 5-hydroxytryptamine 7 receptor
Measurement Label: Ki

[[record]]
compound = "CCCN(CCC)C1CCc2cccc(O)c2C1 (stereo unspecified)"
measurement_label = "Ki"
test_result = "150 nM"


====

Molecular target: 5-hydroxytryptamine receptor 5A (Mus musculus, UniProt P30966)
Assay: Binding affinity towards murine 5-hydroxytryptamine 5A receptor
pKi: −log10 of the molar value.
The following compounds are listed with their measured pKi values.
Measurement Label: pKi

[[record]]
molecule_smiles = "c1ccc2nc(N3CCNCC3)ccc2c1"
censor_symbol = "<"
test_result = 5.00

[[record]]
molecule_smiles = "Oc1ccccc1N1CCNCC1"
censor_symbol = "="
test_result = 6.67

[[record]]
molecule_smiles = "Clc1cccc(N2CCNCC2)c1"
censor_symbol = "="
test_result = 5.06

[[record]]
molecule_smiles = "Cn1c2c(c3ccccc31)CNCC2"
censor_symbol = "="
test_result = 5.28


====

Biological target: UniProt P50406
Experiment: Antagonistic activity towards 5-hydroxytryptamine 6 receptor was evaluated in cAMP assay
Measurement Label: IC50 (nM)

[[record]]
molecule_smiles = "CN(C)Cc1cn(S(=O)(=O)c2ccccc2)c2ccccc12"
measurement_label = "IC50"
unit_annotation = "nM"
test_result = 800

[[record]]
molecule_smiles = "Cc1cn(S(=O)(=O)c2ccc(N)cc2)c2ccccc12"
measurement_label = "IC50"
unit_annotation = "nM"
test_result = 300


====

Biological target: 5-hydroxytryptamine receptor 7 (Homo sapiens, UniProt P34969)
Sequence (P34969 whole entry): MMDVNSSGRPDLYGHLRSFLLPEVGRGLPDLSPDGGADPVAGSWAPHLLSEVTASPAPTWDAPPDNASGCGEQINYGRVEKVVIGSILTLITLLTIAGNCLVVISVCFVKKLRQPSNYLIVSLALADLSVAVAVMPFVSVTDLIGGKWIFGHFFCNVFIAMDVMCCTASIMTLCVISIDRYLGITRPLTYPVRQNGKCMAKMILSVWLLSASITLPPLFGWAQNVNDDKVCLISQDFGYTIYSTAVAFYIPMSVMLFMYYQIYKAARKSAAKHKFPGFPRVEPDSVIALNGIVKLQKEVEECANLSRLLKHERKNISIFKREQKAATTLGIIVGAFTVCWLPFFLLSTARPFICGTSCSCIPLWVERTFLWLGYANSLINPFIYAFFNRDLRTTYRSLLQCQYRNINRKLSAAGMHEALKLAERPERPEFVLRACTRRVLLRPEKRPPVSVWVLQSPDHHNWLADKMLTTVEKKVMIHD
Test: Binding affinity towards human 5-hydroxytryptamine 7 receptor
pKi: −log10 of the molar value.
Measurement Label: pKi

[[record]]
molecule = "CO[C@]1(C)c2cccc3c2-c2c1ccc1c2[C@@H](C3)N(C)CC1"
measurement_label = "pKi"
test_result = 8.96

[[record]]
molecule = "CNC(=O)Cn1c2c(c3ccccc31)CCN(CCCCC13CCCc4cccc(c41)NC3=O)C2 (stereo unspecified)"
measurement_label = "pKi"
test_result = 8.40

[[record]]
molecule = "CN1C[C@@H](NS(=O)(=O)N(C)C)C[C@@H]2c3cccc4[nH]cc(c34)C[C@H]21 [DISULERGINE]"
measurement_label = "pKi"
test_result = 7.74

[[record]]
molecule = "CCc1c(C)[nH]c2c1C(=O)C(CN1CCOCC1)CC2 (stereo unspecified) [MOLINDONE]"
measurement_label = "pKi"
test_result = 6.58

[[record]]
molecule = "CN1CCc2cccc3c2[C@H]1Cc1cccc(-c2ccccc2)c1-3"
measurement_label = "pKi"
test_result = 8.01

[[record]]
molecule = "CN1CCc2ccc3c4c2[C@H]1Cc1cccc(c1-4)[C@@H]3N"
measurement_label = "pKi"
test_result = 7.74

[[record]]
molecule = "Cc1c(N=C2NCCN2)cccc1-c1ccccc1"
measurement_label = "pKi"
test_result = 7.80

[[record]]
molecule = "OCCN1CCN(CCCN2c3ccccc3Sc3ccc(Cl)cc32)CC1 [PERPHENAZINE]"
measurement_label = "pKi"
test_result = 7.64

[[record]]
molecule = "CN1CCc2ccc3c4c2[C@H]1Cc1cccc(c1-4)[C@H]3N"
measurement_label = "pKi"
test_result = 7.87

[[record]]
molecule = "Cc1cccc(S(=O)(=O)N2CCC[C@@H]2CCN2CCC(C)CC2)c1 [SB-258741]"
measurement_label = "pKi"
test_result = 8.52

[[record]]
molecule = "CO[C@@]1(C)c2cccc3c2-c2c1ccc1c2[C@@H](C3)N(C)CC1"
measurement_label = "pKi"
test_result = 8.96

